Origin of values: patent US9321756B2

- study_target: full length recombinant Pim-3 (Homo sapiens (Human), UniProt Q86V86)
- method: Pim enzyme assay (HTRF, phosphorylation of biotinylated-BAD (S112) peptide), Pim-3
- Type: biochemical
- applied_conditions: Pim-3 enzyme assay; read-out: Pim3 IC50
property_measured: IC50 (nM)

[[record]]
molecule = "c1cc(C2CC2)nc(-c2c[nH]c3ccc(-c4nnc(NC5COC5)o4)cc23)n1"
test_value = 1.21

[[record]]
molecule = "CCCCOc1cnc(-c2c[nH]c3ccc(-c4nnc(N)s4)cc23)cn1"
test_value = 392

[[record]]
molecule = "Nc1nnc(-c2ccc3[nH]cc(-c4cnc(OC5CCCC5)cn4)c3c2)s1"
test_value = 506

[[record]]
molecule = "Nc1nnc(-c2ccc3[nH]cc(-c4ccnc(N5CCOCC5)n4)c3c2)s1"
test_value = 4

[[record]]
molecule = "Nc1nnc(-c2ccc3[nH]cc(-c4cncc(OC5CCCC5)n4)c3c2)s1"
test_value = 10.7


(P) CC(C)Nc1cccc(-c2c[nH]c3ccc(-c4nnc(N)s4)cc23)n1
(Q) C[C@H]1CCCCN1c1nc(-c2c[nH]c3ccc(-c4nnc(N)s4)cc23)cs1 (stereo in doubt)
(R) CNc1nnc(-c2ccc3[nH]cc(-c4cccc(-c5ccccc5)c4)c3c2)s1
IN: Rank descending by IC50. Labels, ranked as asked.
OUT: R, Q, P
